target: human GPR84 receptor (Homo sapiens, UniProt Q9NQS5); construct: frozen aliquots prepared by acCELLerate; assay: cAMP HTRF assay for identification of cellular GPR84 antagonists; details: CHO-K1 cells stably expressing human GPR84; Forskolin plus agonist 6-OAU; cAMP HTRF readout; average or median values
Sequence (Q9NQS5 whole entry): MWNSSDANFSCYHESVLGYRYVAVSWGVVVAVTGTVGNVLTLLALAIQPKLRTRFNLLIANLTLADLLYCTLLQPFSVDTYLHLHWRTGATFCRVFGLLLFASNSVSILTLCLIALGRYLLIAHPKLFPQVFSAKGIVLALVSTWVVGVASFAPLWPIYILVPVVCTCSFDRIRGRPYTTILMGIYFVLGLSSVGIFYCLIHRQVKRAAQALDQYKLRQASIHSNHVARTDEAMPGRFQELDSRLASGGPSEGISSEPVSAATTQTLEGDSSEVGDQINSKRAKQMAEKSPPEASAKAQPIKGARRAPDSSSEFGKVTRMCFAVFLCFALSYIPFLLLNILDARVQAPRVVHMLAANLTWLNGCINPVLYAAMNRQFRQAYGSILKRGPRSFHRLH
pIC50: −log10 of the molar value.
Property: pIC50

// known answers, use as guide
Cc1c(C(=O)NCCN2CCCC2)oc2c1-c1nn(Cc3cccc(Cl)c3)cc1CC2 [Example 18]; 6.00
Cc1c(C(=O)N2CCN(S(C)(=O)=O)CC2)oc2c1-c1nn(Cc3ccc(Cl)cc3)cc1CC2 [Example 67]; 5.11
Cc1ccc(Cn2cc3c(n2)-c2c(oc(C(=O)NC[C@@H]4COCCO4)c2C)CC3)cc1 [Example 2]; 8.15
Cc1c(C(=O)NCCC#N)oc2c1-c1nn(Cc3ccc(Cl)cc3)cc1CC2 [Example 70]; 5.02
Cc1c(C(=O)NCc2ccon2)oc2c1-c1nn(Cc3ccc(F)cc3Cl)cc1CC2 [Example 94]; 6.55

[P] Cc1ccccc1Cn1cc2c(n1)-c1c(oc(C(=O)NCC3CCCN3)c1C)CC2 (single isomer, unassigned) [Example 7-2]
[Q] Cc1c(C(=O)N(C)Cc2ccnn2C)oc2c1-c1nn(Cc3ccc(Cl)cc3)cc1CC2 [Example 84]
Hi, I'm comparing P with Q and wondering which one has the bigger number for pIC50. Any idea? The response must carry the label of the picked entry. P
(P: 6.20, Q: 4.79)

[I] Cc1c(C(=O)N2CCC(O)CC2)oc2c1-c1nn(Cc3ccc(Cl)cc3)cc1CC2 [Example 71]
[II] Cc1c(C(=O)NCc2cc[nH]n2)oc2c1-c1nn(Cc3ccc(Cl)cc3)cc1CC2 [Example 41]
[III] Cc1ccc(Cn2cc3c(n2)-c2c(oc(C(=O)NCc4ccon4)c2C)CC3)cc1 [Example 3]
[IV] Cc1c(C(=O)NCC2CCOCC2)oc2c1-c1nn(Cc3ccc(Cl)cc3)cc1CC2 [Example 52]
[V] Cc1c(C(=O)NCC2CCS(=O)(=O)C2)oc2c1-c1nn(Cc3ccc(Cl)cc3)cc1CC2 (stereo not drawn) [Example 59]
Could you please order the items by pIC50, going from the lowest number to the highest? Hello, could you send the labels back in the order asked? Thank you. I, V, IV, II, III
(I: 5.02, V: 5.28, IV: 5.53, II: 6.28, III: 6.85)
